# system_under_test: T1, Pfs230 D1D2 (aa 587–889) (Plasmodium falciparum, UniProt P68874 587-889)
# T1 chain: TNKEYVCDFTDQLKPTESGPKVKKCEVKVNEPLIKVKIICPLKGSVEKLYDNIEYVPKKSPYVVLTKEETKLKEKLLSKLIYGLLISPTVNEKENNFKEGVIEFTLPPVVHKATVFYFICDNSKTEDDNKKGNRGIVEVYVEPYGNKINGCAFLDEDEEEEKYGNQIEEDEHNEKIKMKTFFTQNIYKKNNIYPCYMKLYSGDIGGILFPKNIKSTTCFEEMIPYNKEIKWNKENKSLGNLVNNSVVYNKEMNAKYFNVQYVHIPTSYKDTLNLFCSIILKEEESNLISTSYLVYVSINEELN
# assay_name: BLI
Give measured pKd for each item. Keep answers brief.
One number for each entry, as −log10 of the molar value.

Solved entries:
input: Indicate its recorded pKd; the binder in question is nanobody E1 (VHH) VHH: QVQLQESGGGLVQPGGSLRLSCAASGRTFSSYFMGWFRQAPGKGRVFVASISWSGGSTYYADSVKGRFTISRDNAENTVYLQMNSLKPEDTAVYYCAAGTRATPLDWASGMDYWGKGTQVTVSS
output: 8.41

input: Indicate its recorded pKd; the binder in question is nanobody D11 (VHH) VHH: QVQLQESGGGLVQAGSSLRLSCAASGRTFSSYAMGWFRQAPGKEREFVAAIGWSGGTYYTDSVEGRFTISRDNAENTVYLQMNSLKPEDTAVYYCAAKASGSSWSERGYDYWGQGTQVTVSS
output: 7.79

input: Indicate its recorded pKd; the binder in question is nanobody A11 (VHH) VHH: QVQLQESGGGLVQPGESLRLSCAASGRTSSSYAMGWFRQAPGKEREFVASISWSGGSTYYADSVKGRFTLSRDNAKNTVYLQMNSLKPEDTAVYYCAADGIFYSDYPLSVDDFHSWGQGTQVTVSS
output: 8.84

Respectfully, I request pKd for each entry included below.
1. nanobody G2 (VHH) VHH: QVQLQESGGGLVQAGGSLRLSCAASGRTFSNYFMGWFRQAPGKEREFVAAVSWSGGSTYYADSVKGRLTISRDNAKNTVYLQMNSLKPEDTAVYYCAAGERYFPMEPRRGYDYWGQGTQVTVSS
2. nanobody G5 (VHH) VHH: QVQLQESGGGLVQAGGSLRLSCAASGRTFNDYAMYWFRQAPGKEREFVADITWSGSSTYYADSVKGRFTISRDNAKNTVFLQMNSLKPEDTALYYCAADSRYYGIGIGTPRYWGQGTQVTVSS
3. nanobody D6 (VHH) VHH: QVQLQESGGGLVQAGDSLRLSCAASGRTFSSYFMGWFRQAPGKEREFVAAISWSGGSTYYADSVKGRFTISRDNVKNTVYLQMNSLEPEDAAVYYCAGGGSYYPMSPRNGMDYWGKGTQVTVSS

output:
[8.95, 8.04, 9.20]

Respectfully, I request pKd for each entry included below.
1. nanobody F10 (VHH) VHH: QVQLQESGGGLVQAGGSLRLSCAASGRTFSDYFMGWFRQAPGKEREFVAAVSWSGGSTYYADSVKGRFTISRDNAKNTVFLQMNSLKPEDTAVYYCAGGGSYYPMSPYDGMDYWGKGTQVTVSS
2. nanobody A10 (VHH) VHH: QVQLQESGGGLVQAGSSLRLSCAASGGTFSNYAMGWFRQAPGKEREFVAAIGWSGGTYYTDSVEGRFTISRDNAKNTVYLQMNSLKPEDTAVYYCAAKRSGSSWSERGYDYWGQGTQVTVSS

output:
1. 9.35
2. 8.23
